Target: T1, PUF4 RNA-binding domain (Saccharomyces cerevisiae, UniProt P25339 537-888)
T1 sequence: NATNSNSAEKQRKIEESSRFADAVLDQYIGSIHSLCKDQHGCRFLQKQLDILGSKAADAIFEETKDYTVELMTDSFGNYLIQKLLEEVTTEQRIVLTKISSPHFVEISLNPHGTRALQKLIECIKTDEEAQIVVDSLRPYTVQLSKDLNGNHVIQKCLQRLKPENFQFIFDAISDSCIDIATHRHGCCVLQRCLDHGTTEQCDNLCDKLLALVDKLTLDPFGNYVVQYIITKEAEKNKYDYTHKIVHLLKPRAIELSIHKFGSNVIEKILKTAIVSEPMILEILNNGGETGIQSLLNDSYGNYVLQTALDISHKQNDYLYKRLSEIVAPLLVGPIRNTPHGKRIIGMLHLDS
Assay: Mg; RNA-MaP; 20 mM Na-HEPES pH 7.4, 30 mM KOAc, 0.75 mM MgCl2, 0.1% Tween-20, 5% glycerol, 0.1 mg/mL BSA, 2 mM DTT; 25 C; 0.0125-409.6 nM protein
Details: tags: N-His6-TEV cleaved; C-SNAP kept, Cy3B-labelled; label: tethered on chip by stalled RNA polymerase
pKd: −log10 of the molar value.
Measured pKd accompanies every entry in the list below.
measured_metric: pKd

- UCUCUUUGUAUUCCUUUAUUAUCUCUU (ssRNA) [Ie_S1_P5E.1_K5.1_C5.1_H5.1_[+4TTCCT]_A5.1_F5.1_T5.1]: 7.31
- Ic_S2_P4E.1_K4.1_C4.1_H4.1_A4.1_[T5C]_[A6C]_F4.1_[T8C]_[A9T]_T4.1 (ssRNA) RNA: UUUGAUUAAUAUGAUAUCGUUCUUUCUUGUACCUCUUUCUUUCUCGAUAUCAUAUUAAUCUUU: 7.53
- UCUCUUUGUAUUCCAAUCUCUU (ssRNA) [Ic_S1_P5E.1_K5.1_C5.1_H5.1_A5.1_[A7C]_F5.1_[T8C]_[T9A]_T5.1]: 6.28
- Ib_S4_P3E.1_K3.1_C3.1_H3.1_A3.1_[A6G]_F3.1_[T7C]_T3.1 (ssRNA) RNA: UUUGACAACUGAUCGUUCUUUCUUGUAUGCAUUCUUUCUCGAUCAGUUGUCUUU: 6.53
- ACAAACUGUCCCUUAUUAUUAACAAAC (ssRNA) [Ie_S3_P5E.1_K5.1_C5.1_H5.1_[+3CCCTT]_A5.1_F5.1_T5.1]: 6.16
- Ic_S4_P4E.1_K4.1_C4.1_H4.1_A4.1_[A6T]_[T7C]_F4.1_[A9T]_T4.1 (ssRNA) RNA: UUUGACAACUGAUCGUUCUUUCUUGUAUUCUUUUCUUUCUCGAUCAGUUGUCUUU: 7.56
